Where do the numbers come from? From patent US20260217797A1.

Below, each entry is listed alongside its reported PsV neutralization IC50.
# target_entity: SARS-CoV-2 Beta (B.1.351) spike protein (on reporter virus particles) (SARS-CoV-2, UniProt P0DTC2 14-1273)
# test: cell-based or functional assay
Give a bare numeral; the unit µg/mL is implied.

{"columns": ["binder", "PsV neutralization IC50, µg/mL"],
 "data": [
  ["A-9 (antibody, V domains shown) VH: EVQLVESGGGLVKPGRSLRLSCAASGFTFADYAMSWFRQAPGKGLEWVGFIRSKPYGGTTEYAASVKGRFTISRDDSKSIAYLQMNSLKTEDTAVYYCSRDPWYCSGGDCYAVTGSWFDPWGQGTLVTVSS VL: DIVLTQSPSSLSASVGDRVTITCQASQDIKKYLNWYQQKPGKAPKLLIYDVSNLETGVPSRFSGSGSGTDFTFTISSLQPEDVAIYYCQQYDNLPQTFGQGTKVDIK", 0.028],
  ["A-16 (antibody, V domains shown) VH: QVQLVESGGGLVQPGRSLRLSCAASGFTFDDYAMHWVRQAPGKGLEWVSGISWNSGTIGYADSVKGRFIISRDNAKNSLYLQMNSLRGEDMALYYCGKDRKREDPSLGGMDVWGQGTTVTVSS VL: SYELTQPPSVSVAPGQTARITCGGNNIGSKSVHWYQQKPGQAPVLVVYDDTDRPSGIPERFSGSNSGNTATLTISRVEAGDEADYYCQVWDSSSDHYVFGTGTKLTVL", 0.103]
]}

Give the value of PsV neutralization IC50 reported for the following: A-6 (antibody, V domains shown) VH: QVQLVQSGGGVVQPGRSLRLSCAASGFTFSNFAMHWVRQAPGKGLEWVAVILYDGINKYYADSVKGRFTISRGNSKNTLSLQMNSLRAEDTAVYYCARAQNYYDRSGTLQLDAFDIWGQGTMVTVSS VL: DIVMTQSPSSLSASVGDRVTITCRASQGIRNDLGWYQQKPGKAPKLLIYAASSLQSGVPSRFSGSGSGTDFTLTISSLQPEDFATYYCLQDYNYPLTFGGGTKVEIK
0.171

Read the entry A-18 (antibody, V domains shown) VH: EVQLLESGGGLVQPGGSLRLSCAASGFTFSRYWMHWVRQAPGKGLVWVSRINSDGSSTTYADSVKGRFTISRDNAKNTLYLQMNSLRAEDTAVYYCARELYYYDSRGAEEGEGWFDPWGQGTLVTVSS VL: QSVLTQPPSVSGAPGQRVTISCTGISSNIGAGYDVHWYQQLPGTAPKLLIYGNSNRPSGVPDRFSASKSGTSAPLAITGLQAEDEADYYCQSSDRSLSGSVFGTGTKLTVL and write its reported PsV neutralization IC50.
0.259
